meta.source: patent US12187709B2

study-system: c-Cbl (Homo sapiens (Human), UniProt P22681)
Sequence (P22681 47-435): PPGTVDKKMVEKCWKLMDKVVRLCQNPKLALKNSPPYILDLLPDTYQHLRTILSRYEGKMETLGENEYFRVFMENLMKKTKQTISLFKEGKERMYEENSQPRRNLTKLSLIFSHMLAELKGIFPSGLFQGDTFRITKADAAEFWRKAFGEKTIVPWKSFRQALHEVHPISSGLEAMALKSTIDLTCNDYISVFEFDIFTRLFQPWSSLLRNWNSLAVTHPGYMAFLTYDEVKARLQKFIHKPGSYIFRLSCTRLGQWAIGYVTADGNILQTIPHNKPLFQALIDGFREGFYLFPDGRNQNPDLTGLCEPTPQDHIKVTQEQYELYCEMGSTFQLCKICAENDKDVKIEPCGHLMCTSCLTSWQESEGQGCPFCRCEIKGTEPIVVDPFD
Reported log10 of IC50 values follow for various molecules
On a log10 scale: recorded IC50, unit µM.

Below are worked cases with known answers.
- molecule: "Cn1cnnc1[C@@H](c1cccc(N2Cc3c(cc(CNC4(C)CCC4)cc3C(F)(F)F)C2=O)c1)C1CC(F)C1 (single isomer, unassigned) [Compound 130]"
  study-system: "c-Cbl (Homo sapiens (Human), UniProt P22681)"
  log10 of IC50: -2.24
- molecule: "Cn1cnnc1[C@H](c1cccc(N2Cc3c(cc(CNC4(C)CCC4)cc3C(F)F)C2=O)c1)C1CC(F)C1 (some centres unmarked)"
  study-system: "c-Cbl (Homo sapiens (Human), UniProt P22681)"
  log10 of IC50: 0.51
- molecule: "CO[C@H]1C[C@](c2cccc(N3Cc4c(cc(CNC(C)C)cc4C(F)(F)F)C3=O)c2)(c2nncn2C)C1"
  study-system: "c-Cbl (Homo sapiens (Human), UniProt P22681)"
  log10 of IC50: -0.72

Record for CO[C@H]1C[C@@](c2cccc(N3Cc4c(cc([C@H](C)NC5(C)CCC5)cc4C(F)(F)F)C3=O)c2)(c2nncn2C)C1 (single isomer, unassigned) under target or system c-Cbl (Homo sapiens (Human), UniProt P22681): log10 of IC50 reported as -0.66

Record for Cn1cnnc1C(F)(c1cccc(N2Cc3c(cc(CNC4(C)CCC4)cc3C(F)(F)F)C2=O)c1)C1(F)COC1 (stereo in doubt) under target or system c-Cbl (Homo sapiens (Human), UniProt P22681): log10 of IC50 reported as -0.02

----------
study-system: Human Cbl-b (residues 40-426) (Homo sapiens (Human), UniProt Q13191)
assay-procedure: Cbl-b SPR assay
Assay type: binding
test-settings: C-cbl SPR Kd vs Cbl-b SPR Kd
measured-property: Fold of selectivity

- molecule: "Cn1cnnc1C1(c2cccc(N3Cc4c(cc(CNC5(C)CCC5)cc4C(F)(F)F)C3=O)c2)CN(S(C)(=O)=O)C1"
  observed-result: "13×"
- molecule: "Cn1cnnc1[C@@H](c1cccc(N2Cc3c(cc(CNC4(C)CCC4)cc3C(F)(F)F)C2=O)c1)C1(F)COC1 (single isomer, unassigned)"
  observed-result: "5.0×"

In plain terms, Cn1cnnc1C(c1cccc(N2Cc3c(cc(CNC4(C)CCC4)cc3C(F)(F)F)C2=O)c1)[C@H]1C[C@H](CC#N)C1 (single isomer, unassigned) [Compound 364] has a documented Fold of selectivity of 4.4×

In plain terms, CC[C@H]1C[C@](c2cccc(N3Cc4c(Cl)cc(CNC5(C)CCC5)cc4C3=O)c2)(c2nncn2C)C1 has a documented Fold of selectivity of 11×

In plain terms, CCNc1cc(N2Cc3c(cc(CNC4(C)CCC4)cc3C(F)(F)F)C2=O)cc([C@]2(c3nncn3C)C[C@@H](C)C2)c1 has a documented Fold of selectivity of 3.0×

In plain terms, CCCNCc1cc2c(c(C(F)(F)F)c1)CN(c1cccc([C@]3(c4nncn4C)C[C@H](OC)C3)c1)C2=O has a documented Fold of selectivity of 13×

In plain terms, Cn1cnnc1[C@]1(c2cc(NC3CCCCC3)nc(N3Cc4c(cc(CNC5(C)CCC5)cc4C(F)(F)F)C3=O)c2)C[C@@H](C)C1 has a documented Fold of selectivity of 3.0×

In plain terms, C[C@@H]1C[C@](c2cccc(N3Cc4c(cc(CNC5(C)CCC5)cc4C(F)(F)F)C3=O)c2)(c2nncn2C)O1 has a documented Fold of selectivity of 6.0×

In plain terms, Cn1cnnc1C(c1cccc(N2Cc3c(cc(CNC4(C)CCC4)cc3C(F)(F)F)C2=O)c1)[C@H]1C[C@@H](Cl)C1 (single isomer, unassigned) has a documented Fold of selectivity of 5.5×

In plain terms, CC[C@H]1C[C@](c2cccc(N3Cc4c(cc(CNC5(C)CCC5)cc4C(F)(F)F)C3=O)c2)(c2nncn2C)C1 has a documented Fold of selectivity of 11×

In plain terms, Cn1cnnc1[C@]1(c2cccc(N3Cc4c(cc(CNC5(C)CCC5)cc4C(F)(F)F)C3=O)c2)C[C@@H](OCF)C1 has a documented Fold of selectivity of 7.8×

In plain terms, Cn1cnnc1[C@H](c1cccc(N2Cc3c(cc(CNC4(C)CCC4)cc3C(F)(F)F)C2=O)c1)C1CCC1 (single isomer, unassigned) has a documented Fold of selectivity of 5.5×

In plain terms, Cn1cnnc1C1(c2cccc(N3Cc4c(cc(CNC5(C)CCC5)cc4C(F)(F)F)C3=O)c2)CCCC1 has a documented Fold of selectivity of 6.3×

----------
Reported IC50 values follow for various molecules
study-system: Cbl-b (Homo sapiens (Human), UniProt Q13191)
Sequence (Q13191 40-426): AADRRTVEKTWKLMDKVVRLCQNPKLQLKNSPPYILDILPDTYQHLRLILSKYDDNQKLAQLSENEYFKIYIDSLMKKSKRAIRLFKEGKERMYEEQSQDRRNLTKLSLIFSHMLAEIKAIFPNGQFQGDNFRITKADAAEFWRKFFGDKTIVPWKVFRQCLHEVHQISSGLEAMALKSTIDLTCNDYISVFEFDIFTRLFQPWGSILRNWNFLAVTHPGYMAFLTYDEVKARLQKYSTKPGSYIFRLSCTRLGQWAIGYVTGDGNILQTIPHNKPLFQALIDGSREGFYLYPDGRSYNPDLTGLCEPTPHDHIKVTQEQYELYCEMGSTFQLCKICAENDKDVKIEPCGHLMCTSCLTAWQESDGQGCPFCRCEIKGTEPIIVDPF
assay-procedure: Cbl-b LCK Ub TR-FRET assay (Cbl-b Lck HTRF)
Assay type: biochemical
test-settings: Cbl-b LCK Ub TR-FRET, Example 121
Just the number please, in nM, no unit attached.

- molecule: "CO[C@H]1C[C@](c2cccc(N3Cc4c(cc(CNC5CC6CC6C5)cc4C(F)(F)F)C3=O)c2)(c2nncn2C)C1 (stereo partly drawn) [Compound 498]"
  study-system: "Cbl-b (Homo sapiens (Human), UniProt Q13191)"
  IC50 / nM: 4.1
- molecule: "CO[C@H]1C[C@](c2cccc(N3Cc4c(cc(CNCC5CC5(F)F)cc4C(F)(F)F)C3=O)c2)(c2nncn2C)C1 (stereo partly drawn) [Compound 482]"
  study-system: "Cbl-b (Homo sapiens (Human), UniProt Q13191)"
  IC50 / nM: 5.3
- molecule: "Cn1cnnc1[C@@H](c1cccc(N2Cc3c(cc(CN[C@H]4[C@@H]5COC[C@@H]54)cc3C(F)(F)F)C2=O)c1)C1COC1 (single isomer, unassigned) [Compound 472]"
  study-system: "Cbl-b (Homo sapiens (Human), UniProt Q13191)"
  IC50 / nM: 13

Record for CC1(NCc2cc3c(c(C(F)(F)F)c2)CN(c2cccc([C@H](c4nnc[nH]4)C4COC4)c2)C3=O)CCC1 (single isomer, unassigned) [Compound 440] under target or system Cbl-b (Homo sapiens (Human), UniProt Q13191): IC50 reported as 66

Record for Cn1cnnc1[C@@H](c1cccc(N2Cc3c(cc([C@@H](NC4(C)CCC4)C4CC4)cc3C(F)(F)F)C2=O)c1)C1COC1 (single isomer, unassigned) [Compound 430] under target or system Cbl-b (Homo sapiens (Human), UniProt Q13191): IC50 reported as 19

Record for CC[C@H]1C[C@@](c2cccc(N3Cc4c(cc(CNC5(C)CCC5)cc4C(F)(F)F)C3=O)c2)(c2nncn2C)C1 [Compound 454] under target or system Cbl-b (Homo sapiens (Human), UniProt Q13191): IC50 reported as 6.5

----------
study-system: Cbl-b (Homo sapiens (Human), UniProt Q13191)
assay-procedure: Cbl-b LCK Ub TR-FRET assay (Cbl-b Lck HTRF)
Assay type: biochemical
test-settings: ratio C-cbl Lck HTRF IC50 / Cbl-b Lck HTRF IC50
measured-property: fold-selectivity (Cbl-b over C-cbl) (x)
Just the number please, in x, no unit attached.

- compound: "CO[C@H]1C[C@@](c2cc(NC3CCC3)cc(N3Cc4c(cc(CNC5(C)CCC5)cc4C(F)(F)F)C3=O)c2)(c2nncn2C)C1"
  study-system: "Cbl-b (Homo sapiens (Human), UniProt Q13191)"
  fold-selectivity (Cbl-b over C-cbl) / x: 5.5
- compound: "Cn1cnnc1[C@](O)(c1cccc(N2Cc3c(cc(CNC4(C)CCC4)cc3C(F)(F)F)C2=O)c1)C1COC1 (single isomer, unassigned)"
  study-system: "Cbl-b (Homo sapiens (Human), UniProt Q13191)"
  fold-selectivity (Cbl-b over C-cbl) / x: 1.6

Record for Cn1cnnc1[C@@H](c1cccc(N2Cc3c(cc(CNC4(C)CCC4)cc3C(F)(F)F)C2=O)c1)n1ccnc1 (single isomer, unassigned) under target or system Cbl-b (Homo sapiens (Human), UniProt Q13191): fold-selectivity (Cbl-b over C-cbl) reported as 1

Record for Cn1cnnc1C1(c2cccc(N3Cc4c(cc(CNC5(C)CCC5)cc4C(F)(F)F)C3=O)c2)CC2(CN(CC(F)(F)F)C2)C1 under target or system Cbl-b (Homo sapiens (Human), UniProt Q13191): fold-selectivity (Cbl-b over C-cbl) reported as 3.7

Record for Cn1cnnc1[C@@H](c1cccc(N2Cc3c(cc(CNC4(C)CCC4)cc3C(F)(F)F)C2=O)c1)[C@H]1C[C@@H](C#N)C1 (single isomer, unassigned) under target or system Cbl-b (Homo sapiens (Human), UniProt Q13191): fold-selectivity (Cbl-b over C-cbl) reported as 1.9

Record for CC(C)[C@H]1CN(C)CCN1Cc1cc2c(c(C(F)F)c1)CN(c1cccc(C3(c4nncn4C)CC4(COC4)C3)c1)C2=O.O=CO.O=CO under target or system Cbl-b (Homo sapiens (Human), UniProt Q13191): fold-selectivity (Cbl-b over C-cbl) reported as 4.4
